Data origin: paper PMC6916368

The entries below are paired with their reported Survival of embryos (not dechorionated).
# System: Danio rerio embryos
# Experiment notes: Danio rerio embryo toxicity assay (not dechorionated)
# Type: in vivo
# Measurement setup: 25 µM, 96 h
Attribute measured: Survival of embryos (not dechorionated) (%)

In [3]: df
Out[3]:
                                   compound            tested_on                       attribute_measured  recorded_measurement
0  CC(C)C[C@H](NC(=O)OCc1ccccc1)C(=O)N[C@@H](CC(C)C)C(=O)N[C@@H](CC(C)C)C(=O)C(=O)Nc1cccc(Oc2ccccc2)c1  Danio rerio embryos  Survival of embryos (not dechorionated)                   100
1  CC(C)C[C@H](NC(=O)[C@H](Cc1ccccc1)NC(=O)c1cnccn1)B(O)O [Bortezomib 1, Bortezomib, reference compound]  Danio rerio embryos  Survival of embryos (not dechorionated)                    80
2  CC(C)C[C@H](NC(=O)[C@H](CCc1ccccc1)NC(=O)CN1CCOCC1)C(=O)N[C@@H](Cc1ccccc1)C(=O)N[C@@H](CC(C)C)C(=O)[C@@]1(C)CO1  Danio rerio embryos  Survival of embryos (not dechorionated)                   100
3  Cc1ccc(NC(=O)C(=O)C(CC(C)C)NC(=O)C(CC(C)C)NC(=O)C(CC(C)C)NC(=O)OCc2ccccc2)c(C)c1 (centres unmarked)  Danio rerio embryos  Survival of embryos (not dechorionated)                    80
4  Cc1cc(C)c(Oc2ccccc2)cc1NC(=O)C(=O)[C@H](CC(C)C)NC(=O)[C@H](CC(C)C)NC(=O)[C@H](CC(C)C)NC(=O)c1cc(Cl)ccc1Cl  Danio rerio embryos  Survival of embryos (not dechorionated)                   100

----------
The entries below are paired with their reported Survival of embryos (not dechorionated).
# System: Danio rerio embryos
# Experiment notes: Danio rerio embryo toxicity assay (not dechorionated)
# Format: in vivo
# Measurement setup: 25 µM, 48 h

Molecule	Survival of embryos (not dechorionated) / %
Cc1cc(C)c(Oc2ccccc2)cc1NC(=O)C(=O)[C@H](CC(C)C)NC(=O)[C@H](CC(C)C)NC(=O)[C@H](CC(C)C)NC(=O)c1cc(Cl)ccc1Cl [Compound 27]	100
CC(C)C[C@H](NC(=O)[C@H](Cc1ccccc1)NC(=O)c1cnccn1)B(O)O [Bortezomib 1, Bortezomib, reference compound]	100
CC(C)C[C@H](NC(=O)OCc1ccccc1)C(=O)N[C@@H](CC(C)C)C(=O)N[C@@H](CC(C)C)C(=O)C(=O)Nc1cccc(Oc2ccccc2)c1 [Compound 9]	100
CC(C)C[C@H](NC(=O)[C@H](CCc1ccccc1)NC(=O)CN1CCOCC1)C(=O)N[C@@H](Cc1ccccc1)C(=O)N[C@@H](CC(C)C)C(=O)[C@@]1(C)CO1 [Carfilzomib 3, Carfilzomib]	100
Cc1ccc(NC(=O)C(=O)C(CC(C)C)NC(=O)C(CC(C)C)NC(=O)C(CC(C)C)NC(=O)OCc2ccccc2)c(C)c1 (centres unmarked) [Compound 7, BSc4999]	80

----------
# Tested on: β5c subunit of isolated human 20S proteasome (Homo sapiens)
# Construct: purchased Enzo Life Sciences
# Experiment notes: Proteasome inhibition assay (20 S Proteasome Assay Kit, Suc‐LLVY‐AMC)
# Assay type: biochemical
# Measurement setup: c = 1 µM, n=1; read-out: Inhibition cCP β5
The entries below are paired with their reported inhibition at 1 µM.

Compound	Unit info	inhibition at 1 µM
Cc1ccc(NC(=O)C(=O)[C@H](CC(C)C)NC(=O)[C@H](CC(=O)OC(C)(C)C)NC(=O)[C@H](CC(C)C)NC(=O)OCc2ccccc2)c(C)c1 [Compound 17]	%	88
CC(C)C[C@@H](C=O)NC(=O)[C@H](CC(C)C)NC(=O)[C@H](CC(C)C)NC(=O)c1cc(Cl)ccc1Cl [Compound 24]	%	94
Cc1ccc(NC(=O)C(=O)C(CC(C)C)NC(=O)C(CC(C)C)NC(=O)C(CC(C)C)NC(=O)OCc2ccccc2)c(C)c1 (stereo not drawn) [Compound 7, BSc4999]	%	92

----------
# Test system: Danio rerio embryos
# Experiment notes: Danio rerio embryo toxicity assay (not dechorionated)
# Format: in vivo
# Measurement setup: 5 µM, 96 h

Compound	Survival of embryos (not dechorionated)
CC(C)C[C@H](NC(=O)[C@H](CCc1ccccc1)NC(=O)CN1CCOCC1)C(=O)N[C@@H](Cc1ccccc1)C(=O)N[C@@H](CC(C)C)C(=O)[C@@]1(C)CO1 [Carfilzomib 3, Carfilzomib]	100%
CC(C)C[C@H](NC(=O)[C@H](Cc1ccccc1)NC(=O)c1cnccn1)B(O)O [Bortezomib 1, Bortezomib, reference compound]	80%
CC(C)C[C@H](NC(=O)OCc1ccccc1)C(=O)N[C@@H](CC(C)C)C(=O)N[C@@H](CC(C)C)C(=O)C(=O)Nc1cccc(Oc2ccccc2)c1 [Compound 9]	100%
Cc1cc(C)c(Oc2ccccc2)cc1NC(=O)C(=O)[C@H](CC(C)C)NC(=O)[C@H](CC(C)C)NC(=O)[C@H](CC(C)C)NC(=O)c1cc(Cl)ccc1Cl [Compound 27]	100%
Cc1ccc(NC(=O)C(=O)C(CC(C)C)NC(=O)C(CC(C)C)NC(=O)C(CC(C)C)NC(=O)OCc2ccccc2)c(C)c1 (centres unmarked) [Compound 7, BSc4999]	100%

----------
The entries below are paired with their reported Survival of embryos (not dechorionated).
# System: Danio rerio embryos
# Experiment notes: Danio rerio embryo toxicity assay (not dechorionated)
# Type: in vivo
# Measurement setup: 25 µM, 72 h
Attribute measured: Survival of embryos (not dechorionated) (%)

>>> print(df.to_string())
                                   molecule  unit_info  recorded_measurement
0  CC(C)C[C@H](NC(=O)[C@H](CCc1ccccc1)NC(=O)CN1CCOCC1)C(=O)N[C@@H](Cc1ccccc1)C(=O)N[C@@H](CC(C)C)C(=O)[C@@]1(C)CO1          %                   100
1  CC(C)C[C@H](NC(=O)[C@H](Cc1ccccc1)NC(=O)c1cnccn1)B(O)O [Bortezomib 1, Bortezomib, reference compound]          %                   100
2  Cc1cc(C)c(Oc2ccccc2)cc1NC(=O)C(=O)[C@H](CC(C)C)NC(=O)[C@H](CC(C)C)NC(=O)[C@H](CC(C)C)NC(=O)c1cc(Cl)ccc1Cl          %                   100
3  Cc1ccc(NC(=O)C(=O)C(CC(C)C)NC(=O)C(CC(C)C)NC(=O)C(CC(C)C)NC(=O)OCc2ccccc2)c(C)c1 (centres unmarked)          %                    80
4  CC(C)C[C@H](NC(=O)OCc1ccccc1)C(=O)N[C@@H](CC(C)C)C(=O)N[C@@H](CC(C)C)C(=O)C(=O)Nc1cccc(Oc2ccccc2)c1          %                   100

----------
# Tested on: β5i subunit of isolated human 20S proteasome (Homo sapiens)
# Construct: purchased Enzo Life Sciences
# Experiment notes: Proteasome inhibition assay (20 S Proteasome Assay Kit, Suc‐LLVY‐AMC)
# Assay type: biochemical
# Measurement setup: c=100 nM; read-out: Rel. Inhibition β5i
Attribute measured: inhibition at 0.1 µM (%)

                                    compound    attribute_measured  recorded_measurement
 0  Cc1c(NC(=O)C(=O)[C@H](CC(C)C)NC(=O)[C@H](CC(C)C)NC(=O)[C@H](CC(C)C)NC(=O)OCc2ccccc2)cccc1Oc1ccccc1  inhibition at 0.1 µM                    29
 1  CC(C)C[C@@H](C=O)NC(=O)[C@H](CC(=O)OC(C)(C)C)NC(=O)[C@H](CC(C)C)NC(=O)c1cc(Cl)ccc1Cl  inhibition at 0.1 µM                    38
 2  CC(C)C[C@H](NC(=O)OCc1ccccc1)C(=O)N[C@@H](CC(C)C)C(=O)N[C@@H](CC(C)C)C(=O)C(=O)Nc1ccc(Oc2ccccc2)cc1  inhibition at 0.1 µM                     5
 3  CC(C)C[C@@H](C=O)NC(=O)[C@H](CC(C)C)NC(=O)[C@H](CC(C)C)NC(=O)c1cnccn1  inhibition at 0.1 µM                     4
 4  CC(C)C[C@H](NC(=O)OCc1ccccc1)C(=O)N[C@@H](CC(=O)OC(C)(C)C)C(=O)N[C@@H](CC(C)C)C(=O)C(=O)Nc1ccccc1  inhibition at 0.1 µM                    48
 5  CC(C)C[C@H](NC(=O)[C@H](CCc1ccccc1)NC(=O)CN1CCOCC1)C(=O)N[C@@H](Cc1ccccc1)C(=O)N[C@@H](CC(C)C)C(=O)[C@@]1(C)CO1  inhibition at 0.1 µM                    43
 6  Cc1ccc(NC(=O)C(=O)[C@H](CC(C)C)NC(=O)[C@H](CC(C)C)NC(=O)[C@H](CC(C)C)NC(=O)c2cc(Cl)ccc2Cl)c(C)c1  inhibition at 0.1 µM                     4
 7  Cc1ccc(NC(=O)C(=O)[C@H](CC(C)C)NC(=O)[C@H](CC(C)C)NC(=O)[C@H](CC(C)C)NC(=O)OCc2ccccc2)cc1Oc1ccccc1  inhibition at 0.1 µM                    28
 8  Cc1ccc(Oc2ccccc2)cc1NC(=O)C(=O)[C@H](CC(C)C)NC(=O)[C@H](CC(C)C)NC(=O)[C@H](CC(C)C)NC(=O)OCc1ccccc1  inhibition at 0.1 µM                    19
 9  CC(C)C[C@H](NC(=O)OCc1ccccc1)C(=O)N[C@@H](CC(C)C)C(=O)N[C@@H](CC(C)C)C(=O)C(=O)Nc1ccccc1Oc1ccccc1  inhibition at 0.1 µM                     8
10  CC(C)C[C@H](NC(=O)OCc1ccccc1)C(=O)N[C@@H](CC(=O)OC(C)(C)C)C(=O)N[C@@H](CC(C)C)C(=O)C(=O)Nc1ccc(Oc2ccccc2)cc1  inhibition at 0.1 µM                    40
11  Cc1ccc(NC(=O)C(=O)C(CC(C)C)NC(=O)C(CC(C)C)NC(=O)C(CC(C)C)NC(=O)OCc2ccccc2)c(C)c1 (stereo not shown)  inhibition at 0.1 µM                    33
12  Cc1ccc(NC(=O)C(=O)[C@H](CC(C)C)NC(=O)[C@H](CC(=O)OC(C)(C)C)NC(=O)[C@H](CC(C)C)NC(=O)c2cc(Cl)ccc2Cl)c(C)c1  inhibition at 0.1 µM                    35
